Recorded pIC50 values for a group of molecules are listed next.
# experimentalTarget: Keap1-Nrf2 PPI (Keap1 kelch domain protein, FITC labeled Nrf2 9 peptide) (Homo sapiens, UniProt Q14145)
# Construct: 10 μL 12 nm Keap1 kelch domain protein
# Sequence (Q14145 321-609 limits assumed): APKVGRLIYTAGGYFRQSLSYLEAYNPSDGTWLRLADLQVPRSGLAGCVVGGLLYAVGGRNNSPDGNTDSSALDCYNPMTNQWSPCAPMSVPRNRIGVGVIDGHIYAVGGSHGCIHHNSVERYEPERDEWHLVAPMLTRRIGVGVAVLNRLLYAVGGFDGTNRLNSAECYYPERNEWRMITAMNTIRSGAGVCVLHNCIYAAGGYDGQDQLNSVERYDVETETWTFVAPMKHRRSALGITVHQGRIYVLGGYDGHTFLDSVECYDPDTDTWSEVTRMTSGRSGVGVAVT
# measurementDescription: Fluorescence polarization based Keap1-Nrf2 PPI competitive inhibition experiment (FP experiment)
# Format: binding
# measurementParameters: FP experiment; general formula V / VI compounds
// pIC50 here means minus log10 of the molar concentration (mol/L)

C#CCN(c1ccc(NS(=O)(=O)c2ccc(OC)c(C)c2)c2ccccc12)[C@@H](C)CC(=O)O 7.14
C#CCN(c1ccc(N(CC(=O)O)S(=O)(=O)c2ccc3c(c2)CCO3)c2ccccc12)[C@@H](C)CC(=O)O 7.07
C#CCN(c1ccc(N(CC(=O)O)S(=O)(=O)c2c(C)cc(OC)cc2C)c2ccccc12)[C@@H](C)CC(=O)O 8.24

Consider now this further molecule.
For the molecule shown here, C#CCN(c1ccc(NS(=O)(=O)c2ccc(OC)c(F)c2)c2ccccc12)[C@@H](C)CC(=O)O , give the reported pIC50. 6.56

----------
# experimentalTarget: Keap1-Nrf2 PPI (Keap1 kelch domain protein, FITC labeled Nrf2 9 peptide) (Homo sapiens, UniProt Q14145)
# Construct: 10 μL 12 nm Keap1 kelch domain protein
# measurementDescription: Fluorescence polarization based Keap1-Nrf2 PPI competitive inhibition experiment (FP experiment)
# Type: binding
# measurementParameters: FP experiment; general formula IV compounds
Some compounds, each annotated with its measured pIC50.
Interpret pIC50 as the negative base-10 log of the concentration measured in mol/L.

C#CCN(c1ccc(N(CC(=O)O)S(=O)(=O)c2ccc(Cl)cc2)c2ccccc12)[C@@H](C)CC(=O)O 6.02
C#CCN(c1ccc(N(CC(=O)O)S(=O)(=O)c2ccc(F)cc2)c2ccccc12)[C@@H](C)CC(=O)O 5.70
C#CCN(c1ccc(N(CC(=O)O)S(=O)(=O)c2ccccc2)c2ccccc12)[C@@H](C)CC(=O)O 5.52

What measured pIC50 goes with C#CCN(c1ccc(N(CC(=O)O)S(=O)(=O)c2ccc(NC(C)=O)cc2)c2ccccc12)[C@@H](C)CC(=O)O ? 6.20

// query: C#CCN(c1ccc(N(CC(=O)O)S(=O)(=O)c2ccc(OC)cc2)c2ccccc12)[C@@H](C)CC(=O)O 7.17

Another compound: C#CCN(c1ccc(N(CC(=O)O)S(=O)(=O)c2ccc(C)cc2)c2ccccc12)[C@@H](C)CC(=O)O 6.96

Next compound: C#CCN(c1ccc(N(CC(=O)O)S(=O)(=O)c2ccccc2OC)c2ccccc12)[C@@H](C)CC(=O)O 6.54

----------
Catalogue of IC50 readings, one per entry.
# experimentalTarget: Keap1-Nrf2 PPI (Keap1 kelch domain protein, FITC labeled Nrf2 9 peptide) (Homo sapiens, UniProt Q14145)
# Construct: 10 μL 12 nm Keap1 kelch domain protein
# measurementDescription: Fluorescence polarization based Keap1-Nrf2 PPI competitive inhibition experiment (FP experiment)
# Type: binding
# measurementParameters: FP experiment; general formula III compounds; unit inferred
# Protocol: 1. Keap1-Nrf2 PPI Competitive Inhibition Test Based on Fluorescence Polarization (FP Experiment) The 384-well blackboard model 3676 produced by Corning is used in FP experiment, with a total volume of reaction of 40 μL. […] The inhibition rate is calculated as: inhibition %=[…]/(Pmax−Pmin) wherein Pobs is the polarization value of the compound well, Pmax is the polarization value of the negative control well, and Pmin is the polarization value of the blank well. […]
// return numeric value only (unit: nM, not printed)

I'd like to know its IC50. The compound in question is C#CCN(c1ccc(NS(=O)(=O)c2ccc(NC(C)=O)cc2)c2ccccc12)[C@@H](C)CC(=O)O 1460
